Where do the numbers come from? From PubChem BioAssay AID449762.

Assay name: M. tuberculosis growth inhibition, HTS (AID 449762);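 also: bacterial growth assessed after seven days of incubation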
Assay conditions: M. tuberculosis H37Rv growth inhibition, 7H9 media; at 25 µM; stronger effect = higher value
Hit rate of the full screen: of about 330,000 compounds, about 1,900 (0.58%) were called active. About 4% were inconclusive and are not listed. Not all results are given here. Results with a measured potency or affinity are listed apart.
Measured quantity: inhibition (%)
Give the value, in units of %, as a plain number.

These solved cases illustrate the format of a correct answer.
O=C(c1nc2ccccc2[nH]1)c1ccccc1[N+](=O)[O-]; 13
COc1cccc(N2CCN(C(=O)CCNS(=O)(=O)c3ccc4c(c3)c(=O)n(C)c(=O)n4C)CC2)c1; -0.56
O=C(Nc1ccc(N2CCOCC2)cc1)C1CC1; -20.2

Please look up its inhibition: COc1cccc(/C=N/n2c(COc3ccccc3)n[nH]c2=S)c1
0.11

Given the entry CCOc1ccc(CCNC(=O)COC(=O)c2cc(OC)c(OC)c(OC)c2)cc1OCC , report its measured inhibition.
-6.27

Which inhibition reading was recorded for the compound CCC1CCCCN1CCCNC(=O)Cn1nc(C)n2nc(-c3ccccc3)cc2c1=O (centres undefined) ?
1.58

Which measured inhibition value corresponds to Cc1ccc2nc(CSc3nnc(-c4ccncc4)n3C)cc(=O)n2c1 ?
-4.97

Which measured inhibition value corresponds to CCOc1ccc(-n2c(-c3ccccc3)c[n+]3c2CCCCC3)cc1 ?
-7.91

Which measured inhibition value corresponds to CC(=O)NNC(=O)c1cc2c3ccccc3n(C)c2s1 ?
-4.02
